test system: Bcap-37 cells; test: Inhibition of cell growth in tumor cells, MTT assay, Bcap-37 cells; format: cell-based; details: Homo sapiens, Bcap37, 72 h compound exposure
Parameter: IC50. Scope: all listed entries.

Study these solved cases before continuing.
// IC50 lookup, compound = `CC(C)C[C@@H](N)C(=O)O[C@H]1CC[C@@]2(C)[C@H](CC[C@H]3C4=CC[C@H](c5ccc(=O)oc5)[C@@]4(C)CC[C@@H]32)C1` , result: 376 nM

Just so you know, measured IC50 for `C[C@]12CC[C@H](OC(=O)NCCN3CCCC3)C[C@H]1CC[C@H]1C3=CC[C@H](c4ccc(=O)oc4)[C@@]3(C)CC[C@@H]12` came out at 168 nM

// IC50 value for `C[C@@H](N)C(=O)O[C@H]1CC[C@@]2(C)[C@H](CC[C@H]3C4=CC[C@H](c5ccc(=O)oc5)[C@@]4(C)CC[C@@H]32)C1` : 161 nM

// recorded IC50 for `C[C@]12CC[C@H](OC(=O)N3CCNCC3)C[C@H]1CC[C@H]1C3=CC[C@H](c4ccc(=O)oc4)[C@@]3(C)CC[C@@H]12` : 137 nM

Item: `CC(C)[C@H](N)C(=O)O[C@H]1CC[C@@]2(C)[C@H](CC[C@H]3C4=CC[C@H](c5ccc(=O)oc5)[C@@]4(C)CC[C@@H]32)C1` | IC50: 444 nM

IC50 reading for `C[C@]12CC[C@H](OC(=O)NCCN3CCOCC3)C[C@H]1CC[C@H]1C3=CC[C@H](c4ccc(=O)oc4)[C@@]3(C)CC[C@@H]12` : 192 nM

# context switch: different compound, same IC50
Looking up `CC(C)[C@@H](N)C(=O)O[C@H]1CC[C@@]2(C)[C@H](CC[C@H]3C4=CC[C@H](c5ccc(=O)oc5)[C@@]4(C)CC[C@@H]32)C1` , I see its IC50 listed as 155 nM

All values here come from patent US9018197B2.
